Data origin: PubChem BioAssay

Experimental System: L-lactate dehydrogenase (Plasmodium falciparum (isolate CDC / Honduras))
Method Notes: PfLDH activity inhibition – cell lysate, 3D7 strain, counter-screen for P. falciparum growth inhibition project (AID 2304);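 further: 0% = vehicle and 100% = reference inhibitor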
Recorded Conditions: P. falciparum 3D7 crude extract, LDH APAD/NBT absorbance; at 2 µM; stronger effect = higher value
Entries and their inhibition

| Molecule | inhibition, % |
| --- | --- |
| CC(C)N(Cc1cnc2nc(N)nc(N)c2n1)c1ccc(Cl)c(Cl)c1 | -3 |
| CCCCC(=O)Nc1nc2ccc([N+](=O)[O-])cc2s1 | -5 |
| COc1ccc(-c2nc3cccnc3n2CC(=O)Nc2cc(Cl)c(Cl)cc2Cl)c(OC)c1 | 1 |
| CS(=O)(=O)c1ccc(CCNCc2ccc(-c3ccc(CN(C(=O)C4CCCC4)C4CCN(Cc5ccccc5)CC4)cc3)nc2)cc1 | -6 |
| COc1cc2nc(NCCc3ccccc3)nc(NCCc3ccccc3)c2cc1OC | 2 |
| CC=CCON1C(N)=NC(N)=NC1(C)C | 5 |
| CCC(CC)(CCC#N)CN(C[C@@H](O)[C@H](Cc1ccccc1)NC(=O)OC(C)(C)C)S(=O)(=O)c1ccc(OC)cc1 | 0 |
| COc1ccc(Nc2cc(C)c3cc(NC(=O)c4ccncc4)ccc3n2)cc1 | 2 |
| CCn1ccc2c3c(N)nc(N)nc3ccc21 | 6 |
| O=C1CCCN1CCCNCc1ccc(-c2ccc(-c3nc4ccc(F)cc4[nH]3)cc2)cc1 | -3 |
| CC(Nc1ccc2c(c1)CCC2)C(=O)Nc1cc(C(F)(F)F)ccc1N1CCOCC1 (centres undefined) | -1 |
| CC1(C)N=C(N)N=C(N)N1OCCCOc1c(Cl)cc(Cl)cc1Cl | -2 |
| COc1cc2nc(N3CCC(CNC(=O)c4cccc5cccnc45)CC3)nc(N)c2cc1OC | -2 |
| COc1ccc(CNC2CCN(C)CC2)cc1-c1ccc(S(=O)(=O)NCc2cccnc2)s1 | -4 |
| O=C(Nc1ccc(C(=O)OCC(c2ccccc2)c2ccccc2)cc1)N[C@@H](Cc1ccc(O)cc1)C(=O)NC1CCN(Cc2ccc(O)cc2)C1 (some centres undefined) | 1 |
| CN1CCC(c2c[nH]c3ccc(NC(=O)Nc4ccc(-c5ccncc5)c(Cl)c4Cl)cc23)CC1 | -1 |
| O=C(CC1NC(=O)c2ccccc21)Nc1ccc(-c2cccc(-c3nc4ccc(C(F)(F)F)cc4[nH]3)c2)cc1 (centres undefined) | -4 |
| CCCC(CNCc1cccc(OC(F)(F)C(F)F)c1)CNc1cc(=O)c2ccccc2[nH]1 (centres undefined) | 1 |
| Cc1nnc2c(NC(=O)NC3CCCC3)cc3cc(-c4ccc(CN5CCN(C)CC5)cc4)ccc3n12 | -1 |

====

Experimental System: L-lactate dehydrogenase (Plasmodium falciparum (isolate CDC / Honduras)) (UniProt Q27743)
Sequence (Q27743 whole entry, looked up): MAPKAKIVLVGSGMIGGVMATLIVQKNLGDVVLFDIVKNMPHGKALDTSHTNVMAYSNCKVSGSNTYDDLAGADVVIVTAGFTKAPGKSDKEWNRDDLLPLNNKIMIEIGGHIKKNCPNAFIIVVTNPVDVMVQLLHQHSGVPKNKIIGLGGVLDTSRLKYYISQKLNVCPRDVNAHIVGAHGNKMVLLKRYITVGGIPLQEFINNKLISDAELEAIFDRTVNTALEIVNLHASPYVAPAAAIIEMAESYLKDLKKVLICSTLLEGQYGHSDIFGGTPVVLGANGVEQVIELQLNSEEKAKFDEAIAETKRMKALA
Method Notes: PfLDH activity inhibition – cell lysate, 3D7 strain, counter-screen for P. falciparum growth inhibition project (AID 2304);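 further: 0% = vehicle and 100% = reference inhibitor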
Recorded Conditions: P. falciparum 3D7 crude extract, LDH APAD/NBT absorbance; at 2 µM; stronger effect = higher value
Entries and their inhibition
Experimental Endpoint: inhibition (%)

| Compound | Experimental Endpoint | Observed Result |
| --- | --- | --- |
| Cc1[nH]c(C)c(-c2ccc(OCc3cc(F)cc(F)c3)nc2)c(=O)c1Br | inhibition | -7 |
| O=c1[nH]c2ccc(Nc3nccc(NCCc4ccccc4)n3)cc2[nH]1 | inhibition | 3 |
| Cc1cc(NCCC(=O)NCCOc2ccccc2)nc(NCCc2ccc(F)cc2)n1 | inhibition | 2 |
| CCOc1ccccc1NC(=O)Nc1ccc2c(c1)CCN(C1CCC1)CC2 | inhibition | -3 |
| NC(N)=NN=C1C=Cc2cccc3cccc1c23 | inhibition | 1 |
| O=C(Nc1cccc(CN2CCCN(Cc3ccc(O)cc3)CC2)c1)c1cccc(F)c1 | inhibition | -2 |
| CC(=O)Nc1ccc(S(=O)(=O)N(Cc2cccc(Oc3ccccc3)c2)C2CCN(C/C=C(\C)CCC=C(C)C)CC2)cc1 | inhibition | 0 |
| CN1CCN(CCCN(Cc2cccc(-c3cccc(CNCc4ccc5c(c4)OCO5)c3)c2)C(=O)CCC2CCCC2)CC1 | inhibition | 1 |
| N#Cc1cccc(COC(=O)C2=C(COc3ccccc3Cl)NC(=O)NC2c2c[nH]c3cnccc23)c1 (stereo not drawn) | inhibition | -1 |
| CCc1cn2c3c(cc(C(=O)N[C@@H](Cc4ccccc4)[C@H](O)CNC4CCOCC4)cc13)N(C(C)C)S(=O)(=O)CC2 | inhibition | -2 |
| O=C(NC1CC1)c1ccc(N2CCC(Cc3ccccc3)CC2)c([N+](=O)[O-])c1 | inhibition | -1 |
| CC(C)CN(c1nc(C(=O)NNC(=O)[C@H](CC2CC2)NC(=O)c2cc3cc(OCCN4CCCCC4)ccc3o2)cs1)C1CC1 | inhibition | -4 |
| O=C(NC1CC1)c1cnc(N2CCC(Oc3ccc(Cl)cc3)CC2)c(Cl)c1 | inhibition | -5 |
| CCCc1cc(C(=O)N[C@@H](Cc2ccccc2)[C@H](O)CNC(C)(C)c2cccc(OC)c2)c(F)c(N2CCCC2=O)c1 | inhibition | 0 |
| COc1ccc(-c2ccc(NC(=O)c3cccc(Cl)c3)cc2)cc1CN1CCC(O)CC1 | inhibition | -5 |
| c1cncc(CCNCc2ccc(-c3ccc(-c4nc5ccccc5[nH]4)s3)cc2)c1 | inhibition | -3 |
| COc1ccc(NC(=O)C=Cc2ccc(Oc3ccccc3Cl)c([N+](=O)[O-])c2)cc1OCCN(C(C)C)C(C)C | inhibition | 2 |
| Nc1nc2cccc3ccc4cccc1c4c32 | inhibition | -1 |
| CN1CCN(CCCN(Cc2csc(-c3ccc(CNCc4ccccc4)cc3)n2)S(=O)(=O)c2ccccc2)CC1 | inhibition | 7 |
| Cc1cccc2[nH]c(-c3cccc(-c4ccc(NC(=O)C5CCCO5)cc4)c3)nc12 (stereo not drawn) | inhibition | -4 |
| CCCCCCn1c(Sc2ccc(C#N)c([N+](=O)[O-])c2)nnc1-c1ccc(Cl)cc1 | inhibition | 0 |
| C=CCO[C@@H]1O[C@H](COC(c2ccccc2)(c2ccccc2)c2ccccc2)[C@@H](OC(C)=O)[C@H](OC(C)=O)[C@H]1NC(C)=O | inhibition | -1 |
| CCC(C)c1ccc(NC(=O)Nc2ccnc3ccccc23)cc1 (stereo not drawn) | inhibition | -2 |
| COc1ccc(Nc2nccc(N3CCC(NC(=O)C(C)c4ccc(Cl)cc4)CC3)n2)cc1 (stereo not drawn) | inhibition | -2 |
| Clc1ccccc1CCNCC1CCN(CC2CCCCC2)CC1 | inhibition | -5 |
| COc1ccc2ncc(Cl)c(CCN3CC[C@@H](CNCc4cc5c(cn4)OCS5)C3)c2n1 | inhibition | 3 |
| COc1ccc2nccc(CCC3(O)CCC(NCc4cc5c(cc4F)SCC(=O)N5)CC3)c2c1 (stereo not drawn) | inhibition | -2 |
| Cc1ccc2[nH]c(C)c(Br)c(=O)c2c1 | inhibition | -5 |
| O=C(NC1CCN(CCCOc2ccnc3cc(Cl)ccc23)C1)c1ccc(Br)cc1 (stereo not drawn) | inhibition | 2 |
| Cc1cccc2[nH]c(-c3ccc(-c4ccc(NC(=O)Nc5ccc(F)c(F)c5F)cc4)cc3)nc12 | inhibition | -1 |
| COc1cccc(COCC(O)CN(CCc2ccccn2)C(=O)c2ccccc2F)c1 (stereo not drawn) | inhibition | -1 |
| O=c1cc(NCCCNCc2cc(Br)cs2)[nH]c2ccccc12 | inhibition | -2 |
| O=C(NC1CCCCC1)c1ccc(O)c(-c2cccc(C(F)(F)F)c2)c1 | inhibition | 0 |
| COc1cccc(CN2CCCN(Cc3cccc(NC(=O)c4ccc(Cl)c(Cl)c4)c3)CC2)c1 | inhibition | 0 |
| CN(C)Cc1cccc(-c2cnc(N)c(-c3nc4ccc(S(C)(=O)=O)cc4[nH]3)c2)c1 | inhibition | -2 |
| CNC(=O)NC1CCN(Cc2c(-c3cccs3)nc3ccccc3c2C(=O)N[C@@H](C)C2CCCCC2)CC1 | inhibition | 1 |
| O=S(=O)(Nc1cccc(CCN2CCC(N3CCCCC3)CC2)c1)c1ccccc1C(F)(F)F | inhibition | 1 |
| Cn1ccc(C(=O)Nc2ccc3c(c2)CN(Cc2ccc(N4CCCC4)o2)CCC3)n1 | inhibition | 4 |

====

Method Notes: human hepatoma cell viability loss – ATP luminescence, cytotoxicity control for P. falciparum antimalarial project, primary screen (AID 2303);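 further: 0% = DMSO wells and 100% = digitonin-killed cells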
Recorded Conditions: HepG2 viability, 24-48 h, at 10 µM, stronger effect = higher value
Entries and their inhibition
Experimental Endpoint: inhibition (%)

| Compound | Experimental Endpoint | Measurement Units | Observed Result |
| --- | --- | --- | --- |
| NC(N)=NN=Cc1cc2ccccc2c2ccccc12 | inhibition | % | 25 |
| COc1ccc2nccc([C@@H](O)CN3CCC(NC(=O)[C@@H]4Cc5ccccc5CN4C(=O)OC(C)(C)C)CC3)c2c1 | inhibition | % | 15 |
| Cc1noc(C)c1-c1ccc2c(Nc3ccccc3C(C)(C)C)c(C(=O)NCc3ccc(C(F)(F)F)cc3)cnc2c1 | inhibition | % | 30 |
| COc1ccc2nccc([C@@H](O)CN3CCC(NCc4cc5cccc(O)c5[nH]4)CC3)c2c1 | inhibition | % | -10 |
| CC(C)N1CCN(C(CN2CCN(CCCOc3ccc4nonc4c3)CC2)c2ccc(F)cc2)CC1 (centres undefined) | inhibition | % | -3 |
| Cc1cccc(C)c1CNc1ccnc2cc(C#N)ccc12 | inhibition | % | 20 |
| COc1cccc(-c2ccc(NC(=O)C3CCCN(Cc4cccc(OC)c4O)C3)cc2)c1 (centres undefined) | inhibition | % | 13 |
| Cc1nnsc1C(=O)Nc1cccc(-c2cccc(-c3nc4ccccc4[nH]3)c2)c1 | inhibition | % | 14 |
| COc1cc(NC(=O)N2CCc3ccc(OCCC4CCCN4C)cc32)cc(C(F)(F)F)c1 (centres undefined) | inhibition | % | 5 |
